testMethodNotes: Half life in Sprague-Dawley rat at 1 mg/kg, iv
Type: ADME, organism-based
conditionContext: in vivo

smiles | half-life
CC(C)(O)CC(=O)N1CCC(c2ccc(NC(=O)N3Cc4ccccc4C3)cc2)CC1 | 4.8 h

* * *

testMethodNotes: Oral bioavailability in Sprague-Dawley rat at 5 mg/kg
Type: ADME, organism-based
conditionContext: in vivo
experimentalEndpoint: bioavailability (%)

smiles | experimentalEndpoint | measured
O=C(NC[C@@H]1CCOC1)c1ccc(NC(=O)N2Cc3ccccc3C2)cc1 | bioavailability | 59

* * *

testMethodNotes: Aqueous solubility of the compound
Format: physicochemical
conditionContext: buffer
experimentalEndpoint: solubility

compound | experimentalEndpoint | measured
CCCNC(=O)c1ccc(NC(=O)N2Cc3ccccc3C2)cc1 | solubility | < 5 µM
CC(C)(O)CC(=O)N1CCC(c2ccc(NC(=O)N3Cc4ccccc4C3)cc2)CC1 | solubility | 3.3 µM
O=C(NCCCc1ccccc1)c1ccc(NC(=O)N2Cc3ccccc3C2)cc1 | solubility | < 5 µM
O=C(NCc1ccccc1)c1ccc(NC(=O)N2Cc3ccccc3C2)cc1 | solubility | < 5 µM
O=C(/C=C/c1cccnc1)NCCCCC1CCN(C(=O)c2ccccc2)CC1 | solubility | < 5 µM
O=C(NC[C@@H]1CCOC1)c1ccc(NC(=O)N2Cc3ccccc3C2)cc1 | solubility | 17 µM
O=C(NCC1CCCOC1)c1ccc(NC(=O)N2Cc3ccccc3C2)cc1 (stereo not given) | solubility | < 5 µM
CC(C)(C)CCNC(=O)c1ccc(NC(=O)N2Cc3ccccc3C2)cc1 | solubility | < 5 µM
CC(C)C[C@@H](CO)NC(=O)c1ccc(NC(=O)N2Cc3ccccc3C2)cc1 | solubility | < 5 µM
CC(C)CCNS(=O)(=O)c1ccc(NC(=O)N2Cc3ccccc3C2)cc1 | solubility | < 5 µM
